Cited source: patent US20200270309A1

assay: Half-lives and pharmacokinetic parameters of polypeptides vs HM-1; conditions: in vivo, T1/2β (half-life)
Peptide text beside a SMILES is read from it. * marks the point of attachment. X59 = O=C1C=CC(=O)N1c1cccc(CCCCCCCCC(=O)*)c1; X25 = O=C1C=CC(=O)N1CCOCCOCCOCCOCCCCC(=O)*; X76 = O=C1C=CC(=O)N1CCOCCCCCCCC(=O)*; X32 = O=C1C=CC(=O)N1CCOCCOCCC(=O)*
half-life of 40 h or higher: criterion met. Under 40 h: criterion not met.

See these solved cases before continuing.
# COMPOUND, CATEGORY_LABEL
data = [
    ("C[C@H](NC(=O)CNC(=O)[C@H](CCCNC(=N)N)NC(=O)CCCCOCCOCCOCCOCCN1C(=O)C=CC1=O)C(=O)N[C@@H](CC(=O)O)C(=O)N[C@@H](CCCNC(=N)N)C(=O)N[C@@H](C)C(=O)NCC(=O)NCC(=O)NCC(=O)NCC(=O)N[C@@H](CCCNC(=N)N)C(=O)NCC(=O)N[C@@H](CC(=O)O)C(=O)O [X73] (X25-RGADRAGGGGRGD-OH)", "criterion not met"),
    ("C[C@H](NC(=O)CNC(=O)[C@H](CCCNC(=N)N)NC(=O)CCOCCOCCN1C(=O)C=CC1=O)C(=O)N[C@@H](CC(=O)O)C(=O)N[C@@H](CCCNC(=N)N)C(=O)N[C@@H](C)C(=O)NCC(=O)NCC(=O)NCC(=O)NCC(=O)N[C@@H](CCCNC(=N)N)C(=O)NCC(=O)N[C@@H](CC(=O)O)C(=O)O [X57] (X32-RGADRAGGGGRGD-OH)", "criterion met"),
    ("C[C@H](NC(=O)CNC(=O)[C@H](CCCNC(=N)N)NC(=O)CCCCCCCCc1cccc(N2C(=O)C=CC2=O)c1)C(=O)N[C@@H](CC(=O)O)C(=O)N[C@@H](CCCNC(=N)N)C(=O)N[C@@H](C)C(=O)NCC(=O)NCC(=O)NCC(=O)NCC(=O)N[C@@H](CCCNC(=N)N)C(=O)NCC(=O)N[C@@H](CC(=O)O)C(=O)O [X32] (X59-RGADRAGGGGRGD-OH)", "criterion not met"),
]

Query: Kindly determine if half-life recorded for C[C@H](NC(=O)CNC(=O)[C@H](CCCNC(=N)N)NC(=O)CCCCCCCOCCN1C(=O)C=CC1=O)C(=O)N[C@@H](CC(=O)O)C(=O)N[C@@H](CCCNC(=N)N)C(=O)N[C@@H](C)C(=O)NCC(=O)NCC(=O)NCC(=O)NCC(=O)N[C@@H](CCCNC(=N)N)C(=O)NCC(=O)N[C@@H](CC(=O)O)C(=O)O [X55] (X76-RGADRAGGGGRGD-OH) is above or exactly 40 h.
Reply: criterion not met

* * *

test: Half-lives and pharmacokinetic parameters of polypeptides vs HM-1; settings: in vivo
Peptide text beside a SMILES is read from it. * marks the point of attachment. X11 = O=C1C=CC(=O)N1CCOCCOCCOCCOCCOCCCCCC(=O)*; X61 = O=C1C=CC(=O)N1c1cccc(CCCC(=O)*)c1; X51 = O=C1C=CC(=O)N1c1ccccc1CC(=O)*
ATTRIBUTE_MEASURED: clearance

# COMPOUND, ATTRIBUTE_MEASURED, VAL
data = [
    ("C[C@H](NC(=O)CNC(=O)[C@H](CCCNC(=N)N)NC(=O)CCCc1cccc(N2C(=O)C=CC2=O)c1)C(=O)N[C@@H](CC(=O)O)C(=O)N[C@@H](CCCNC(=N)N)C(=O)N[C@@H](C)C(=O)NCC(=O)NCC(=O)NCC(=O)NCC(=O)N[C@@H](CCCNC(=N)N)C(=O)NCC(=O)N[C@@H](CC(=O)O)C(=O)O [X27] (X61-RGADRAGGGGRGD-OH)", "clearance", "0.635 mL/min/kg"),
]

Query: Find the recorded clearance belonging to C[C@H](NC(=O)CNC(=O)[C@H](CCCNC(=N)N)NC(=O)CCCCCOCCOCCOCCOCCOCCN1C(=O)C=CC1=O)C(=O)N[C@@H](CC(=O)O)C(=O)N[C@@H](CCCNC(=N)N)C(=O)N[C@@H](C)C(=O)NCC(=O)NCC(=O)NCC(=O)NCC(=O)N[C@@H](CCCNC(=N)N)C(=O)NCC(=O)N[C@@H](CC(=O)O)C(=O)O [X81] (X11-RGADRAGGGGRGD-OH) and report it.
Reply: 0.543 mL/min/kg

Query: Subsequent entry: C[C@H](NC(=O)CNC(=O)[C@H](CCCNC(=N)N)NC(=O)Cc1ccccc1N1C(=O)C=CC1=O)C(=O)N[C@@H](CC(=O)O)C(=O)N[C@@H](CCCNC(=N)N)C(=O)N[C@@H](C)C(=O)NCC(=O)NCC(=O)NCC(=O)NCC(=O)N[C@@H](CCCNC(=N)N)C(=O)NCC(=O)N[C@@H](CC(=O)O)C(=O)O [X13] (X51-RGADRAGGGGRGD-OH)
Reply: 0.497 mL/min/kg

* * *

Each entry below lists one item and its recorded AUC(0-inf) value.
assay: Half-lives and pharmacokinetic parameters of polypeptides vs HM-1; conditions: in vivo; read-out: AUC0-∞
Peptide text beside a SMILES is read from it. * marks the point of attachment. Propanoyl(3-maleimido) = O=C1C=CC(=O)N1CCC(=O)*; X42 = O=C1C=CC(=O)N1CCOCCC(=O)*
Answers without a unit are incomplete; give the number and then its unit.

# COMPOUND, AUC(0-inf)
measured = [
    ("C[C@H](NC(=O)[C@H](CCCNC(=N)N)NC(=O)[C@H](CC(=O)O)NC(=O)CNC(=O)[C@H](CCCNC(=N)N)NC(=O)CCN1C(=O)C=CC1=O)C(=O)NCC(=O)NCC(=O)NCC(=O)NCC(=O)N[C@@H](CCCNC(=N)N)C(=O)NCC(=O)N[C@@H](CC(=O)O)C(=O)O [P7] ({Propanoyl(3-maleimido)}-RGDRAGGGGRGD-OH; C-terminus assumed)", "32000 ng·h/mL"),
]

Query: Find the recorded AUC(0-inf) belonging to C[C@H](NC(=O)CNC(=O)[C@H](CCCNC(=N)N)NC(=O)CCOCCN1C(=O)C=CC1=O)C(=O)N[C@@H](CC(=O)O)C(=O)N[C@@H](CCCNC(=N)N)C(=O)N[C@@H](C)C(=O)NCC(=O)NCC(=O)NCC(=O)NCC(=O)N[C@@H](CCCNC(=N)N)C(=O)NCC(=O)N[C@@H](CC(=O)O)C(=O)O [X50] (X42-RGADRAGGGGRGD-OH) and report it.
Reply: 26900 ng·h/mL

* * *

test: Half-lives and pharmacokinetic parameters of polypeptides vs HM-1; settings: in vivo, T1/2β (half-life)
Peptide text beside a SMILES is read from it. * marks the point of attachment. MaleimidoPEG4propanoyl = O=C1C=CC(=O)N1CCOCCOCCOCCOCCC(=O)*; X18 = O=C1C=CC(=O)N1CCOCCOCCOCCOCCOCCOCCCCCCCC(=O)*; X58 = O=C1C=CC(=O)N1c1cccc(CCCCCCCCCCCC(=O)*)c1; X5 = O=C1C=CC(=O)N1CCOCCOCCOCCOCCOCCOCC(=O)*; X33 = O=C1C=CC(=O)N1CCOCCOCCOCCCCC(=O)*; X30 = O=C1C=CC(=O)N1CCOCCOCC(=O)*
ATTRIBUTE_MEASURED: half-life (min)
Write the answer as a number in min, unit excluded.

# MOLECULE, ATTRIBUTE_MEASURED, READING_UNIT, VAL
rows = [
    ("C[C@H](NC(=O)CNC(=O)[C@H](CCCNC(=N)N)NC(=O)CCCCCCCCCCCc1cccc(N2C(=O)C=CC2=O)c1)C(=O)N[C@@H](CC(=O)O)C(=O)N[C@@H](CCCNC(=N)N)C(=O)N[C@@H](C)C(=O)NCC(=O)NCC(=O)NCC(=O)NCC(=O)N[C@@H](CCCNC(=N)N)C(=O)NCC(=O)N[C@@H](CC(=O)O)C(=O)O [X35] (X58-RGADRAGGGGRGD-OH)", "half-life", "min", 2380),
]

Query: Find the recorded half-life belonging to C[C@H](NC(=O)CNC(=O)[C@H](CCCNC(=N)N)NC(=O)COCCOCCOCCOCCOCCOCCN1C(=O)C=CC1=O)C(=O)N[C@@H](CC(=O)O)C(=O)N[C@@H](CCCNC(=N)N)C(=O)N[C@@H](C)C(=O)NCC(=O)NCC(=O)NCC(=O)NCC(=O)N[C@@H](CCCNC(=N)N)C(=O)NCC(=O)N[C@@H](CC(=O)O)C(=O)O [X84] (X5-RGADRAGGGGRGD-OH) and report it.
Reply: 2170

Query: Subsequent entry: C[C@H](NC(=O)CNC(=O)[C@H](CCCNC(=N)N)NC(=O)COCCOCCN1C(=O)C=CC1=O)C(=O)N[C@@H](CC(=O)O)C(=O)N[C@@H](CCCNC(=N)N)C(=O)N[C@@H](C)C(=O)NCC(=O)NCC(=O)NCC(=O)NCC(=O)N[C@@H](CCCNC(=N)N)C(=O)NCC(=O)N[C@@H](CC(=O)O)C(=O)O [X56] (X30-RGADRAGGGGRGD-OH)
Reply: 2450

Query: Subsequent entry: C[C@H](NC(=O)CNC(=O)[C@H](CCCNC(=N)N)NC(=O)CCCCCCCOCCOCCOCCOCCOCCOCCN1C(=O)C=CC1=O)C(=O)N[C@@H](CC(=O)O)C(=O)N[C@@H](CCCNC(=N)N)C(=O)N[C@@H](C)C(=O)NCC(=O)NCC(=O)NCC(=O)NCC(=O)N[C@@H](CCCNC(=N)N)C(=O)NCC(=O)N[C@@H](CC(=O)O)C(=O)O [X90] (X18-RGADRAGGGGRGD-OH)
Reply: 2050

Query: Subsequent entry: C[C@H](NC(=O)CNC(=O)[C@H](CCCNC(=N)N)NC(=O)CCCCOCCOCCOCCN1C(=O)C=CC1=O)C(=O)N[C@@H](CC(=O)O)C(=O)N[C@@H](CCCNC(=N)N)C(=O)N[C@@H](C)C(=O)NCC(=O)NCC(=O)NCC(=O)NCC(=O)N[C@@H](CCCNC(=N)N)C(=O)NCC(=O)N[C@@H](CC(=O)O)C(=O)O [X66] (X33-RGADRAGGGGRGD-OH)
Reply: 2060

Query: Subsequent entry: C[C@H](NC(=O)CNC(=O)[C@H](CCCNC(=N)N)NC(=O)CCOCCOCCOCCOCCN1C(=O)C=CC1=O)C(=O)N[C@@H](CC(=O)O)C(=O)N[C@@H](CCCNC(=N)N)C(=O)N[C@@H](C)C(=O)NCC(=O)NCC(=O)NCC(=O)NCC(=O)N[C@@H](CCCNC(=N)N)C(=O)NCC(=O)N[C@@H](CC(=O)O)C(=O)O [X71] (MaleimidoPEG4propanoyl-RGADRAGGGGRGD-OH)
Reply: 2110
